- target-of-assay: Sphingosine 1-phosphate receptor 5 (Homo sapiens) (UniProt Q9H228)
- Sequence (Q9H228 whole entry, looked up): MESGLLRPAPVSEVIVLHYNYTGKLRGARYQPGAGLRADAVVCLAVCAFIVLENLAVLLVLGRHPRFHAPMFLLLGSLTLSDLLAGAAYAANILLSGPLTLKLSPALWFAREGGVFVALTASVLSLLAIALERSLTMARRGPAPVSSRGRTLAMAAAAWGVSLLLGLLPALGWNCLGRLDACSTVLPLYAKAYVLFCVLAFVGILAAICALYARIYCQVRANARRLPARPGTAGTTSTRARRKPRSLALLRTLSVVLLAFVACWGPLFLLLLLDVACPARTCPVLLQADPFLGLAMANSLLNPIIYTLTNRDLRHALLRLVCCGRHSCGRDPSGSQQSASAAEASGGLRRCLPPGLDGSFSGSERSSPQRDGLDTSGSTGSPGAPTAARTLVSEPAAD
- test-method-notes: activation of human S1P5 receptor – cell-based, fluorescence, set 2, counter-screen for S1P4 agonist project, late-stage follow-up (AID 504867)
- settings: S1P5 agonist cell assay, fluorescence read-out
property-measured: EC50

Query string: Consider the compound COCCN=C1S/C(=C\c2cc(C)n(-c3ccc(F)cc3F)c2C)C(=O)N1C . State its measured EC50.
Result string: 2100 nM

Data provenance: PubChem BioAssay AID504867
